- Tested on: ATP;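 further: ATP exposure 15 min at 22 °C before imaging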
- assay-info: switch fluorescence ratio, 500 uM ATP over buffer (Cy3 cluster intensity, sum of 5 cycles each) (fold (ratio)); higher = stronger signal-on switching upon ATP binding; sequences stand for … in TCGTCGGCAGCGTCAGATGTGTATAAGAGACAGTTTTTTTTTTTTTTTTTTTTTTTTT…TC
- experimental-context: aptamer strand: ATP DNA aptamer (quencher-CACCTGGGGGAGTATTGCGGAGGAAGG + anchor), 100 nM annealed; ATP concentration: 500 uM
# label = criterion met if switch fluorescence ratio >= 1 else criterion not met

INPUT: # check: switch fluorescence ratio of "TTTCGGAGAA" is greater than or equal to 1
OUTPUT: criterion not met

INPUT: # check: switch fluorescence ratio of "TCCTCGTCTC" is greater than or equal to 1
OUTPUT: criterion met

INPUT: # check: switch fluorescence ratio of "CCAAGCGCCG" is greater than or equal to 1
OUTPUT: criterion met

INPUT: # check: switch fluorescence ratio of "TGTGACAATA" is greater than or equal to 1
OUTPUT: criterion met
